Hello, the source for this data is patent US9340520B2, in case you need it.

# Tested on: genotype-1a YH single resistant mutant
# method-summary: HCV replicon assay, genotype-1a YH single resistant mutant
# Format: cell-based
# test-conditions: Hepatitis C virus, read-out: EC50 G 1a YH
recorded-metric: pEC50
Answers are plain numbers, as −log10 of the molar value.

COC(=O)N[C@H](C(=O)N1CCC[C@H]1c1nc(-c2ccc(-c3ccc(-c4c[nH]c([C@@H]5CCCN5C(=O)[C@@H](NC(=O)OC)C5C[C@@H](C)O[C@H](C)C5)n4)cc3)cc2)c[nH]1)C1C[C@@H](C)O[C@H](C)C1 (stereo partly shown)
9.42
COC(=O)N[C@H](C(=O)N1[C@H](c2nc(-c3ccc(-c4ccc(-c5c[nH]c([C@@H]6C[C@@]7(C)C[C@H]7N6C(=O)[C@@H](NC(=O)OC)C6C[C@@H](C)O[C@H](C)C6)n5)cc4)cc3)c[nH]2)C[C@@]2(C)C[C@@H]12)C1C[C@@H](C)O[C@H](C)C1 (stereo partly shown)
10.22
COC(=O)N[C@H](C(=O)N1[C@@H](C)CC[C@H]1c1nc(-c2ccc(-c3ccc(-c4c[nH]c([C@@H]5CC[C@H](C)N5C(=O)[C@@H](NC(=O)OC)[C@H]5C[C@@H](C)O[C@@H](C)C5)n4)cc3)cc2)c[nH]1)[C@@H]1C[C@@H](C)O[C@@H](C)C1
9.01
COC(=O)N[C@H](C(=O)N1[C@@H](C)CC[C@H]1c1nc(-c2ccc(-c3ccc(-c4c[nH]c([C@@H]5CC[C@H](C)N5C(=O)[C@@H](NC(=O)OC)C5C[C@@H](C)O[C@H](C)C5)n4)c(F)c3)cc2)c[nH]1)C1C[C@@H](C)O[C@H](C)C1 (stereo partly shown)
9.40

Hi team, please reply with pEC50 for each item in this list.
1. COC(=O)N[C@H](C(=O)N1CCC[C@H]1c1nc(-c2ccc(-c3ccc(-c4c[nH]c([C@@H]5CCCN5C(=O)[C@@H](NC(=O)OC)C5CCOCC5)n4)cc3)cc2)c[nH]1)C1CCOCC1 [Compound-A, reference compound]
2. COC(=O)N[C@H](C(=O)N1[C@@H](C)CC[C@H]1c1nc(-c2ccc(-c3ccc(-c4c[nH]c([C@@H]5CC[C@H](C)N5C(=O)[C@@H](NC(=O)OC)C5C[C@@H](C)O[C@H](C)C5)n4)c(C)c3)cc2)c[nH]1)C1C[C@@H](C)O[C@H](C)C1 (stereo partly shown)
3. COC(=O)N[C@H](C(=O)N1[C@@H](C)CC[C@H]1c1nc(-c2ccc(-c3ccc(-c4c[nH]c([C@@H]5CC[C@H](C)N5C(=O)[C@@H](NC(=O)OC)C5C[C@@H](C)O[C@H](C)C5)n4)cc3)cc2)c[nH]1)C1C[C@@H](C)O[C@H](C)C1 (stereo partly shown)

Found:
[7.89, 8.97, 9.80]

###

# method-summary: IV and PO single dose pharmacokinetic studies in rat
# Type: in vivo
# test-conditions: male Sprague-Dawley rats, oral gavage 5 mg/kg, 24 h, plasma, read-out: 24 h rat PK (Auc)
I'd appreciate it if you could supply AUC values for the items below.
Answers are plain numbers, in µM·h.

COC(=O)N[C@H](C(=O)N1[C@H](c2nc(-c3ccc(-c4ccc(-c5c[nH]c([C@@H]6C[C@@]7(C)C[C@H]7N6C(=O)[C@@H](NC(=O)OC)C6C[C@@H](C)O[C@H](C)C6)n5)cc4)cc3)c[nH]2)C[C@@]2(C)C[C@@H]12)C1C[C@@H](C)O[C@H](C)C1 (some centres unmarked)
0.539

Now turn to the next compound.
Lookup: Name the recorded AUC of the item COC(=O)N[C@H](C(=O)N1CCC[C@H]1c1nc(-c2ccc(-c3ccc(-c4c[nH]c([C@@H]5CCCN5C(=O)[C@@H](NC(=O)OC)C5CCOCC5)n4)cc3)cc2)c[nH]1)C1CCOCC1 [Compound-A, reference compound] in your answer.
Found: 0.103

###

# Tested on: HCV genotype 1b wild type
# method-summary: HCV replicon assay, genotype 1b wild type
# Format: cell-based
# test-conditions: Hepatitis C virus, HCV replicon cells, read-out: EC50 G 1b wild type
Consider the following compounds; for each one, report its pEC50.
Give bare numbers, as −log10 of the molar value.

COC(=O)N[C@H](C(=O)N1[C@@H](C)CC[C@H]1c1nc(-c2ccc(-c3ccc(-c4c[nH]c([C@@H]5CC[C@H](C)N5C(=O)[C@@H](NC(=O)OC)[C@H]5C[C@@H](C)O[C@@H](C)C5)n4)cc3)cc2)c[nH]1)[C@@H]1C[C@@H](C)O[C@@H](C)C1
11.40

Give one value of pEC50 per listed compound.
1. COC(=O)N[C@H](C(=O)N1[C@H](c2nc(-c3ccc(-c4ccc(-c5c[nH]c([C@@H]6C[C@@]7(C)C[C@H]7N6C(=O)[C@@H](NC(=O)OC)C6C[C@@H](C)O[C@H](C)C6)n5)cc4)cc3)c[nH]2)C[C@@]2(C)C[C@@H]12)C1C[C@@H](C)O[C@H](C)C1 (stereo partly drawn)
2. COC(=O)N[C@H](C(=O)N1CCC[C@H]1c1nc(-c2ccc(-c3ccc(-c4c[nH]c([C@@H]5CCCN5C(=O)[C@@H](NC(=O)OC)C5CCOCC5)n4)cc3)cc2)c[nH]1)C1CCOCC1 [Compound-A, reference compound]

Found:
11.16
9.92

###

Would you mind telling me the reported log10(CC50) of each entry?
# method-summary: Cytotoxicity (CC50) in G 1a replicon cells
# Assay type: cell-based
# test-conditions: HCV G 1a replicon cells
Answers are given as log10 of CC50 in µM.

These solved cases illustrate the format of a correct answer.
COC(=O)N[C@H](C(=O)N1[C@H](c2nc(-c3ccc(-c4ccc(-c5c[nH]c([C@@H]6C[C@@]7(C)C[C@H]7N6C(=O)[C@@H](NC(=O)OC)C6C[C@@H](C)O[C@H](C)C6)n5)cc4)cc3)c[nH]2)C[C@@]2(C)C[C@@H]12)C1C[C@@H](C)O[C@H](C)C1 (some centres unmarked)
0.73
COC(=O)N[C@H](C(=O)N1CCC[C@H]1c1nc(-c2ccc(-c3ccc(-c4c[nH]c([C@@H]5CCCN5C(=O)[C@@H](NC(=O)OC)C5C[C@@H](C)O[C@H](C)C5)n4)cc3)cc2)c[nH]1)C1C[C@@H](C)O[C@H](C)C1 (some centres unmarked)
1.19
COC(=O)N[C@H](C(=O)N1[C@@H](C)CC[C@H]1c1nc(-c2ccc(-c3ccc(-c4c[nH]c([C@@H]5CC[C@H](C)N5C(=O)[C@@H](NC(=O)OC)C5C[C@@H](C)O[C@H](C)C5)n4)cc3)cc2)c[nH]1)C1C[C@@H](C)O[C@H](C)C1 (some centres unmarked)
0.77
COC(=O)N[C@H](C(=O)N1[C@@H](C)CC[C@H]1c1nc(-c2ccc(-c3ccc(-c4c[nH]c([C@@H]5CC[C@H](C)N5C(=O)[C@@H](NC(=O)OC)C5C[C@@H](C)O[C@H](C)C5)n4)c(C)c3)cc2)c[nH]1)C1C[C@@H](C)O[C@H](C)C1 (some centres unmarked)
0.79

Next, consider the following compound.
Lookup: Please report log10(CC50) for the following compound: COC(=O)N[C@H](C(=O)N1CCC[C@H]1c1nc(-c2ccc(-c3ccc(-c4c[nH]c([C@@H]5CCCN5C(=O)[C@@H](NC(=O)OC)C5CCOCC5)n4)cc3)cc2)c[nH]1)C1CCOCC1 [Compound-A, reference compound]
Found: 1.81

###

# method-summary: IV and PO single dose pharmacokinetic studies in rat
# Format: in vivo
# test-conditions: plasma, male Sprague-Dawley rats, oral gavage 5 mg/kg vs IV infusion 2 mg/kg, read-out: 24 h rat PK (oral bioavailability)
Answer each item with its documented bioavailability.
Numbers only, in %.

Previously resolved entries follow.
COC(=O)N[C@H](C(=O)N1[C@@H](C)CC[C@H]1c1nc(-c2ccc(-c3ccc(-c4c[nH]c([C@@H]5CC[C@H](C)N5C(=O)[C@@H](NC(=O)OC)C5C[C@@H](C)O[C@H](C)C5)n4)c(F)c3)cc2)c[nH]1)C1C[C@@H](C)O[C@H](C)C1 (stereo partly shown) [Example-4]
16
COC(=O)N[C@H](C(=O)N1[C@@H](C)CC[C@H]1c1nc(-c2ccc(-c3ccc(-c4c[nH]c([C@@H]5CC[C@H](C)N5C(=O)[C@@H](NC(=O)OC)[C@H]5C[C@@H](C)O[C@@H](C)C5)n4)cc3)cc2)c[nH]1)[C@@H]1C[C@@H](C)O[C@@H](C)C1 [Example-1]
15
COC(=O)N[C@H](C(=O)N1CCC[C@H]1c1nc(-c2ccc(-c3ccc(-c4c[nH]c([C@@H]5CCCN5C(=O)[C@@H](NC(=O)OC)C5CCOCC5)n4)cc3)cc2)c[nH]1)C1CCOCC1 [Compound-A, reference compound]
1.3

Please give bioavailability, item by item, for the list that follows.
1. COC(=O)N[C@H](C(=O)N1CCC[C@H]1c1nc(-c2ccc(-c3ccc(-c4c[nH]c([C@@H]5CCCN5C(=O)[C@@H](NC(=O)OC)C5C[C@@H](C)O[C@H](C)C5)n4)cc3)cc2)c[nH]1)C1C[C@@H](C)O[C@H](C)C1 (stereo partly shown) [Example-6]
2. COC(=O)N[C@H](C(=O)N1[C@@H](C)CC[C@H]1c1nc(-c2ccc(-c3ccc(-c4c[nH]c([C@@H]5CC[C@H](C)N5C(=O)[C@@H](NC(=O)OC)C5C[C@@H](C)O[C@H](C)C5)n4)c(C)c3)cc2)c[nH]1)C1C[C@@H](C)O[C@H](C)C1 (stereo partly shown) [Example-3]
3. COC(=O)N[C@H](C(=O)N1[C@H](c2nc(-c3ccc(-c4ccc(-c5c[nH]c([C@@H]6C[C@@]7(C)C[C@H]7N6C(=O)[C@@H](NC(=O)OC)C6C[C@@H](C)O[C@H](C)C6)n5)cc4)cc3)c[nH]2)C[C@@]2(C)C[C@@H]12)C1C[C@@H](C)O[C@H](C)C1 (stereo partly shown) [Example-5]
4. COC(=O)N[C@H](C(=O)N1[C@@H](C)CC[C@H]1c1nc(-c2ccc(-c3ccc(-c4c[nH]c([C@@H]5CC[C@H](C)N5C(=O)[C@@H](NC(=O)OC)C5C[C@@H](C)O[C@H](C)C5)n4)cc3)cc2)c[nH]1)C1C[C@@H](C)O[C@H](C)C1 (stereo partly shown) [Example-2]

Found:
[5, 17, 6.3, 12]
